B1: TPR 5TU (parent)
chain: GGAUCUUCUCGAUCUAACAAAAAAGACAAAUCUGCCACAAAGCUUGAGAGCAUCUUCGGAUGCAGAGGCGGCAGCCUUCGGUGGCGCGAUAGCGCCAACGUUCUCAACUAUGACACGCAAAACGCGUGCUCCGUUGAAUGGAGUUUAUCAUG

Variants of: B1
Assay: polymerase ribozyme fitness, log enrichment relative to wild type (log ratio); higher = more active; in vitro selection for triplet polymerase activity
Variants at the floor of the assay were thinned out.
Provide the recorded polymerase ribozyme fitness (log ratio) for the entries that follow.
Give bare numbers.

A47C G59A ... 0.309

Here is the next item to consider.
The recorded polymerase ribozyme fitness (log ratio) for U15C A21C G48C C93U U146G is -0.835
